B1: scFv; the commonest letter at each place (parent)
chain 1: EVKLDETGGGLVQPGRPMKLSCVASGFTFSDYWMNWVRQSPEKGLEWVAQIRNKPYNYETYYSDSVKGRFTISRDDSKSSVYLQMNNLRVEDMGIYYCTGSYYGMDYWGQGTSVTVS
chain 2: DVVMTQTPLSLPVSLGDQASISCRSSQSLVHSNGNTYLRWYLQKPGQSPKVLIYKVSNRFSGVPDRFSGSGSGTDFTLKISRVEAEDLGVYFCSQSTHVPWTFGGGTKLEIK

Variants of: B1
test_details: Kd (Tite-Seq)
condition_label: with fluorescein; format: scFv 4-4-20, heavy + light
pKd: −log10 of the molar value.
measurement_type: pKd

**Query** Value lookup for pKd; key = chain 1 Y32W V37S
**Result** ≤ 5.00

**Query** Value lookup for pKd; key = chain 1 S30G
**Result** 9.17

**Query** Value lookup for pKd; key = chain 1 G104I M105S
**Result** ≤ 5.00

**Query** Value lookup for pKd; key = chain 1 F29Y V37P
**Result** 6.64

**Query** Value lookup for pKd; key = chain 1 G100V D106Q
**Result** ≤ 5.00

**Query** Value lookup for pKd; key = chain 1 Y102A Y103E
**Result** ≤ 5.00

**Query** Value lookup for pKd; key = chain 1 Y103R M105K
**Result** 8.31

**Query** Value lookup for pKd; key = chain 1 F29G N35I
**Result** ≤ 5.00

**Query** Value lookup for pKd; key = chain 1 S30C W33L
**Result** ≤ 5.00

**Query** Value lookup for pKd; key = chain 1 W33H
**Result** ≤ 5.00

**Query** Value lookup for pKd; key = chain 1 Y32E N35G
**Result** ≤ 5.00

**Query** Value lookup for pKd; key = chain 1 F29R Y32Q
**Result** ≤ 5.00

**Query** Value lookup for pKd; key = chain 1 S101V Y103V
**Result** ≤ 5.00

**Query** Value lookup for pKd; key = chain 1 G104I W108H
**Result** ≤ 5.00

**Query** Value lookup for pKd; key = chain 1 S30M
**Result** 8.76

**Query** Value lookup for pKd; key = chain 1 Y102I D106Q
**Result** ≤ 5.00

**Query** Value lookup for pKd; key = chain 1 F29T M34K
**Result** ≤ 5.00

**Query** Value lookup for pKd; key = chain 1 Y103Q M105Q
**Result** 5.36

**Query** Value lookup for pKd; key = chain 1 Y103E W108T
**Result** 7.77

**Query** Value lookup for pKd; key = chain 1 S30H W33A
**Result** ≤ 5.00

**Query** Value lookup for pKd; key = chain 1 S101I
**Result** ≤ 5.00

**Query** Value lookup for pKd; key = chain 1 W108S
**Result** 7.80

**Query** Value lookup for pKd; key = chain 1 W108P G109N
**Result** ≤ 5.00

**Query** Value lookup for pKd; key = chain 1 G100T S101D
**Result** ≤ 5.00

**Query** Value lookup for pKd; key = chain 1 S101L M105L
**Result** ≤ 5.00

**Query** Value lookup for pKd; key = chain 1 S101D Y107I
**Result** ≤ 5.00

**Query** Value lookup for pKd; key = chain 1 F29L M34D
**Result** ≤ 5.00

**Query** Value lookup for pKd; key = chain 1 S30E
**Result** 9.02

**Query** Value lookup for pKd; key = chain 1 D31T M34Y
**Result** 7.31

**Query** Value lookup for pKd; key = chain 1 D106S W108V
**Result** 6.26

**Query** Value lookup for pKd; key = chain 1 F29W D31H
**Result** 7.66

**Query** Value lookup for pKd; key = chain 1 D106T G109M
**Result** ≤ 5.00

**Query** Value lookup for pKd; key = chain 1 Y102W Y103W
**Result** 5.54

**Query** Value lookup for pKd; key = chain 1 W33T N35D V37W
**Result** ≤ 5.00

**Query** Value lookup for pKd; key = chain 1 G100F G109K
**Result** ≤ 5.00

**Query** Value lookup for pKd; key = chain 1 S30Y M34A
**Result** 7.27

**Query** Value lookup for pKd; key = chain 1 M105N G109C
**Result** ≤ 5.00

**Query** Value lookup for pKd; key = chain 1 T28N V37Y
**Result** ≤ 5.00

**Query** Value lookup for pKd; key = chain 1 S30M V37M
**Result** 9.30

**Query** Value lookup for pKd; key = chain 1 S101L M105D D106L
**Result** ≤ 5.00

**Query** Value lookup for pKd; key = chain 1 Y102H M105T
**Result** ≤ 5.00

**Query** Value lookup for pKd; key = chain 1 Y103L M105I
**Result** ≤ 5.00

**Query** Value lookup for pKd; key = chain 1 S30I V37C
**Result** 8.87

**Query** Value lookup for pKd; key = chain 1 S30F N35C
**Result** ≤ 5.00

**Query** Value lookup for pKd; key = chain 1 F29V Y32W M34W
**Result** 6.73

**Query** Value lookup for pKd; key = chain 1 M105D W108S
**Result** ≤ 5.00

**Query** Value lookup for pKd; key = chain 1 T28P M34S
**Result** 7.81

**Query** Value lookup for pKd; key = chain 1 V37L
**Result** 5.94

**Query** Value lookup for pKd; key = chain 1 F29M W33P
**Result** ≤ 5.00

**Query** Value lookup for pKd; key = chain 1 F29M W36V
**Result** ≤ 5.00

**Query** Value lookup for pKd; key = chain 1 S101W M105I
**Result** ≤ 5.00

**Query** Value lookup for pKd; key = chain 1 D31R M34S
**Result** ≤ 5.00

**Query** Value lookup for pKd; key = chain 1 T28C M34L W36M
**Result** ≤ 5.00

**Query** Value lookup for pKd; key = chain 1 F29Y V37L
**Result** ≤ 5.00

**Query** Value lookup for pKd; key = chain 1 T28C M34S
**Result** ≤ 5.00

**Query** Value lookup for pKd; key = chain 1 N35S V37E
**Result** ≤ 5.00

**Query** Value lookup for pKd; key = chain 1 M105A Y107M
**Result** ≤ 5.00

**Query** Value lookup for pKd; key = chain 1 T28S W33S
**Result** ≤ 5.00

**Query** Value lookup for pKd; key = chain 1 N35G V37K
**Result** ≤ 5.00

**Query** Value lookup for pKd; key = chain 1 T28D W36F
**Result** 7.81

**Query** Value lookup for pKd; key = chain 1 F29T D31A
**Result** 6.46

**Query** Value lookup for pKd; key = chain 1 S30M N35V V37A
**Result** ≤ 5.00

**Query** Value lookup for pKd; key = chain 1 G104F W108T
**Result** ≤ 5.00

**Query** Value lookup for pKd; key = chain 1 F29N S30Q N35K
**Result** ≤ 5.00

**Query** Value lookup for pKd; key = chain 1 F29Y S30D
**Result** 8.42

**Query** Value lookup for pKd; key = chain 1 M34P N35R
**Result** ≤ 5.00

**Query** Value lookup for pKd; key = chain 1 Y32Q W36V
**Result** ≤ 5.00

**Query** Value lookup for pKd; key = chain 1 S101D G109H
**Result** ≤ 5.00

**Query** Value lookup for pKd; key = chain 1 T28H M34H V37R
**Result** ≤ 5.00

**Query** Value lookup for pKd; key = chain 1 M34N N35V
**Result** ≤ 5.00

**Query** Value lookup for pKd; key = chain 1 F29A M34R
**Result** ≤ 5.00

**Query** Value lookup for pKd; key = chain 1 Y32L W36Q
**Result** ≤ 5.00

**Query** Value lookup for pKd; key = chain 1 W36E
**Result** ≤ 5.00

**Query** Value lookup for pKd; key = chain 1 G100C S101W
**Result** ≤ 5.00

**Query** Value lookup for pKd; key = chain 1 W33M V37E
**Result** 7.18

**Query** Value lookup for pKd; key = chain 1 M34G N35H
**Result** ≤ 5.00

**Query** Value lookup for pKd; key = chain 1 W36F
**Result** 8.82

**Query** Value lookup for pKd; key = chain 1 F29Y M34Q V37M
**Result** 5.36

**Query** Value lookup for pKd; key = chain 1 S101P W108T
**Result** ≤ 5.00

**Query** Value lookup for pKd; key = chain 1 M34V V37K
**Result** ≤ 5.00

**Query** Value lookup for pKd; key = chain 1 S101L Y102V
**Result** ≤ 5.00

**Query** Value lookup for pKd; key = chain 1 T28E F29Q
**Result** 8.08

**Query** Value lookup for pKd; key = chain 1 S101M D106G
**Result** ≤ 5.00

**Query** Value lookup for pKd; key = chain 1 Y103L D106I
**Result** ≤ 5.00

**Query** Value lookup for pKd; key = chain 1 G104A
**Result** ≤ 5.00

**Query** Value lookup for pKd; key = chain 1 M105H W108Q
**Result** ≤ 5.00

**Query** Value lookup for pKd; key = chain 1 Y103L M105G
**Result** ≤ 5.00

**Query** Value lookup for pKd; key = chain 1 T28I Y32T
**Result** ≤ 5.00

**Query** Value lookup for pKd; key = chain 1 S101L
**Result** ≤ 5.00

**Query** Value lookup for pKd; key = chain 1 G104K W108Q
**Result** ≤ 5.00

**Query** Value lookup for pKd; key = chain 1 G100L Y102W
**Result** ≤ 5.00
